Cited source: ChEMBL document CHEMBL1122193

- Organism: Rattus norvegicus
- experiment-description: In vitro anti-oxytocic potency was recorded in absence of Mg2+ in rat uteri
- Assay type: functional
- experimental-conditions: read-out: pA2 (converted)

| smiles-text | value-unit | Kb |
| --- | --- | --- |
| CC(C)[C@@H]1NC(=O)[C@@H](Cc2ccccc2)NC(=O)[C@H](Cc2ccc(O)cc2)NC(=O)CC(C)(C)SSC[C@H](C(=O)N2CCC[C@H]2C(=O)N[C@@H](CCCN=C(N)N)C(=O)NCC(N)=O)NC(=O)[C@@H](CC(N)=O)NC1=O | µM | 0.00813 |
| CC1(C)CC(=O)N[C@@H](Cc2ccc(O)cc2)C(=O)N[C@H](Cc2ccccc2)C(=O)N[C@@H](CCC(N)=O)C(=O)N[C@H](CC(N)=O)C(=O)N[C@@H](C(=O)N2CCC[C@H]2C(=O)N[C@H](CCCN=C(N)N)C(=O)NCC(N)=O)CSS1 | µM | 0.0135 |
| NC(=O)CC[C@@H]1NC(=O)[C@H](Cc2ccccc2)NC(=O)[C@H](Cc2ccc(O)cc2)NC(=O)CC2(CCCCC2)SSC[C@@H](C(=O)N2CCC[C@H]2C(=O)N[C@@H](CCCN=C(N)N)C(=O)NCC(N)=O)NC(=O)[C@H](CC(N)=O)NC1=O | µM | 0.0479 |
| CCC1(CC)CC(=O)N[C@@H](Cc2ccc(O)cc2)C(=O)N[C@H](Cc2ccccc2)C(=O)N[C@@H](C(C)C)C(=O)N[C@H](CC(N)=O)C(=O)N[C@@H](C(=O)N2CCC[C@H]2C(=O)N[C@@H](CCCN=C(N)N)C(=O)NCC(N)=O)CSS1 | µM | 0.0479 |

----------
Listed here: items and their measured Kb.
- Organism: Rattus norvegicus
- experiment-description: In vitro anti-oxytocic potency was recorded in absence of Mg2+ in rat uteri
- Format: functional
- experimental-conditions: read-out: pA2 (converted)

| smiles-text | Kb [nM] |
| --- | --- |
| CCC1(CC)CC(=O)N[C@@H](Cc2ccc(O)cc2)C(=O)N[C@H](Cc2ccccc2)C(=O)N[C@@H](CCC(N)=O)C(=O)N[C@H](CC(N)=O)C(=O)N[C@@H](C(=O)N2CCC[C@H]2C(=O)N[C@H](CCCN=C(N)N)C(=O)NCC(N)=O)CSS1 | 112 |
| CCC1(CC)CC(=O)N[C@@H](Cc2ccc(O)cc2)C(=O)N[C@@H](Cc2ccccc2)C(=O)N[C@@H](CCC(N)=O)C(=O)N[C@@H](CC(N)=O)C(=O)N[C@H](C(=O)N2CCC[C@H]2C(=O)N[C@@H](CCCN=C(N)N)C(=O)NCC(N)=O)CSS1 | 50.1 |
| NC(=O)CC[C@@H]1NC(=O)[C@H](Cc2ccccc2)NC(=O)[C@H](Cc2ccc(O)cc2)NC(=O)CC2(CCCCC2)SSC[C@@H](C(=O)N2CCC[C@H]2C(=O)N[C@H](CCCN=C(N)N)C(=O)NCC(N)=O)NC(=O)[C@H](CC(N)=O)NC1=O | 107 |
